Values compiled from patent US20210155689A1.

Provide the reported OD450 of each item.
tested.system: T1, hFc tagged monkey LAG-3 protein (cLAG-3-hFc protein) (monkey; human)
T1 construct: Made in HEK293 cells; also called monkey LAG-3 extracellular domain protein; not shown: human IgG Fc fragment (hFc) of the pCpC vector
T1 chain: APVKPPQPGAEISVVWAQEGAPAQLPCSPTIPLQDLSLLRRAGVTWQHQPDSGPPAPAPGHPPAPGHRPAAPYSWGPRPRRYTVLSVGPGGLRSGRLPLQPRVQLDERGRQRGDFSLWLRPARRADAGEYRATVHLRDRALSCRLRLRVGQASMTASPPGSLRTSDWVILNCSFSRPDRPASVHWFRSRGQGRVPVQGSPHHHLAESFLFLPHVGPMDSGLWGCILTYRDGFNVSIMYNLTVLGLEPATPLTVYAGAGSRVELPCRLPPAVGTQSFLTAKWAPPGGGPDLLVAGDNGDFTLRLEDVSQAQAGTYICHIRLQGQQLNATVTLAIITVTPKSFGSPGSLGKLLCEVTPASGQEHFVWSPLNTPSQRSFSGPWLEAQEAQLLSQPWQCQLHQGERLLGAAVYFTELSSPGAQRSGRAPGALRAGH
protocol.notes: ELISA, cLAG-3-hFc coated; 0.0067 nM
Answers are plain numbers, in OD450.

Worked examples, 2 binders total:
# binder, recorded.result
data = [
    ("409D4E10 (LAG-3 mouse-human chimeric antibody) (antibody, V domains shown) VH: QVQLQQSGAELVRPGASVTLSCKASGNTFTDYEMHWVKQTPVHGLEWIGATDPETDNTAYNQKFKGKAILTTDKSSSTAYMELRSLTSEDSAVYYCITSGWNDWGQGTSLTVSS VL: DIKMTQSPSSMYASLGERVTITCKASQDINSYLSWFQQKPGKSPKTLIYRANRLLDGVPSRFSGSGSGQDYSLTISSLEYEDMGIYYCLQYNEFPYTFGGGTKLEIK", 0.64),
    ("556F6B8 (LAG-3 mouse-human chimeric antibody) (antibody, V domains shown, also called 556F8B8) VH: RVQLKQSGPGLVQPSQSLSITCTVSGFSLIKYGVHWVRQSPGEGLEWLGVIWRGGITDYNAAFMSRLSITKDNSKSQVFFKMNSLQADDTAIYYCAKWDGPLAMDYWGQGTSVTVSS VL: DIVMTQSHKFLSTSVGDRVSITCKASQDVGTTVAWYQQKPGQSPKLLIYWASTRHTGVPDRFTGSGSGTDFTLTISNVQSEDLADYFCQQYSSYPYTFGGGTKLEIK", 0.46),
]

Turning now to a further binder:
Query string: Entry 105F1E10 (LAG-3 mouse-human chimeric antibody) (antibody, V domains shown) VH: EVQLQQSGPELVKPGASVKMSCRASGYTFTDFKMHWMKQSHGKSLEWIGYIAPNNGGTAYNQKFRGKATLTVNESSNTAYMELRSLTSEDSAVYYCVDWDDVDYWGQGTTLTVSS VL: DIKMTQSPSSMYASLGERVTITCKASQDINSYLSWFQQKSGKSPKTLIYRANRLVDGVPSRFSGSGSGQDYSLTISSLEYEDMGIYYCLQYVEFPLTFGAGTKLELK : reported OD450 = ?
Result string: 0.26
